The reported measurements were obtained from patent US20220177594A1.

- Study Target: Feline_OSMR_hlgG1_Fc (feline)
- Sequence (chain, as listed by the source limits assumed, form in doubt): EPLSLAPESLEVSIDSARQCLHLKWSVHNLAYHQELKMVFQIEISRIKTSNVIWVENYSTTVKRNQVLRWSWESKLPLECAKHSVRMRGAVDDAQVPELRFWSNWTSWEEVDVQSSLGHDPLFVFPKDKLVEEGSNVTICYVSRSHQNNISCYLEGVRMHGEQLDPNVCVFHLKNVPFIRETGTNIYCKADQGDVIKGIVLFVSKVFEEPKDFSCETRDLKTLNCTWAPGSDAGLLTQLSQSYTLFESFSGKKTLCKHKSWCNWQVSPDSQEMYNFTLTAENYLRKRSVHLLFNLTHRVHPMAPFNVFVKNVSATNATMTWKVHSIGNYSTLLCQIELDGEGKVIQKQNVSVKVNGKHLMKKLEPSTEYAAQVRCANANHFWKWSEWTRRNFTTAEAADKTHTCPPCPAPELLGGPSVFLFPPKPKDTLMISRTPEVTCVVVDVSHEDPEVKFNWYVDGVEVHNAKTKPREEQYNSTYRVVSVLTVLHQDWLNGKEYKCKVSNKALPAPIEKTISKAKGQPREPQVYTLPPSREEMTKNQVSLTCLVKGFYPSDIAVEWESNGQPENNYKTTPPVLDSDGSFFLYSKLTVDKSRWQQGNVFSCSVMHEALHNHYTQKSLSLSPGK
- Procedure Details: SPR Biacore
Measured Parameter: kon (M⁻¹ s⁻¹)
# unit: M⁻¹ s⁻¹ | format: bare number

Item: Mu_19F07_VL (SEQ ID NO: 49)_Q89A (antibody, V domains shown) VH: EVKLVESEGGLVQPGSSMKLSCTASGFTFSDYYMAWVRQVPEKGLEWVANINYDGSSTYYLDSLKSRFIISRDNAKNILYLQMSSLKSEDTATYYCARGLTWDFDVWGTGTTVTVSS VL: DIVMTQSHKFMSPSVGDRVSITCKASQDVDTAVAWYQQKPGQSPKLLIYLASTRHTGVPDRFTGSGSGTDFTLTISNVQSEDLADYFCAQYSRFPLTFGAGTKLELKR | kon: 46500

Item: Mu_02D09_VH (SEQ ID NO: 31)_H35A (antibody, V domains shown) VH: EVQLVESGGGLVKPGGSLTLSCAASGFTFSDYGMAWLRQAPEKGLEWVAYISSGSRAVFFADTVKGRFTISRDNAKNTLFLQMTSLRSDDTAMYYCARDRYDGRGFAYWGQGTLVTVSA VL: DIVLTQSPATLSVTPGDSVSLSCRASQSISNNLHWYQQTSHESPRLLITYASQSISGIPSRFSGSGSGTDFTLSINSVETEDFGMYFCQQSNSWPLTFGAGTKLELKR | kon: 134000

Item: Mu_10F07_VL (SEQ ID NO: 41)_L33A (antibody, V domains shown) VH: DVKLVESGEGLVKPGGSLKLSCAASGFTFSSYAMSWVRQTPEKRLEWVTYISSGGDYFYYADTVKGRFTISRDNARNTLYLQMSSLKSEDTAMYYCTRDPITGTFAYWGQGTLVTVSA VL: DIQMTQTTSSLSASLGDRVTISCRASQDITNYANWYQQKPDGTVKLLIYYTSTLHSGVPSRFSGSGSGTDFSLTISNLEQEDIATYFCQQGHMLPWTFGGGTKLEIKR | kon: 179000
